Assignment: determine reported TGI for the given compounds.
Test system: SN12C renal
assay: NCI tumour cell line growth inhibition, 48 h

Worked set:
compound	readout label	reported result
C=[N+](CNC(=O)CNC(=O)C(Cc1ccccc1)NC(=O)OC(C)(C)C)C(=O)CNC(=O)C(Cc1ccccc1)NC(=O)OC(C)(C)C (stereo unspecified)	TGI	> 100 µM
CC(=O)c1cccc(NC(=O)/C(=N\NC(=S)NN)C2C(=O)Nc3ccccc3S2=O)c1 (stereo unspecified)	TGI	> 100 µM

Hi team, please reply with TGI for each item in this list.
1. C[Si](C)(C)C#CCOC=C1CC1
2. CCCCCC/C(CC(=O)CCC(=O)NCCc1ccccc1)=N\NC(=O)c1ccc2ccccc2c1O
3. O=C1Cc2c([nH]c3cc(Br)ccc23)-c2ccccc2N1
4. COc1ccc(-c2cc(=O)c3cccnc3[nH]2)cc1
5. Fc1ccc(C(OCCN2CCC3CCC(C2)N3C/C=C/c2cccnc2)c2ccc(F)cc2)cc1 (stereo unspecified)
6. C(=NCCN=Cc1cccc2ccccc12)c1cccc2ccccc12
7. C#Cc1ccccc1N1C(=O)C=CC1=O

## Output
["> 100 µM", "> 100 µM", "76.4 µM", "> 100 µM", "26.2 µM", "> 100 µM", "> 100 µM"]
